# Assay Details: Cytotoxicity in H9c2 cells (CCK-8)
# Type: cell-based
# Condition Label: rat, H9c2 cells; H9c2 cell line
Where a name gives a salt, the structure may show the parent alone.
Readout Name: CC50 at 24 h (µM)
Write it as a number; the unit µM goes unstated.

So what's the measured CC50 at 24 h for this one? Cc1cc(COc2ccc(C(=N)N)cc2)cc(COc2ccc(C(=N)N)cc2)c1 [MD-100, dihydrochloride] 50

So what's the measured CC50 at 24 h for this one? N=C(N)c1ccc(OCc2cccc(COc3ccc(C(=N)N)cc3)c2F)cc1 [DB2573, dihydrochloride] 50

So what's the measured CC50 at 24 h for this one? N=C(N)c1ccc(COc2cc(OCc3ccc(C(=N)N)cc3)cc(C(F)(F)F)c2)cc1 [MD-124, dihydrochloride] 50

So what's the measured CC50 at 24 h for this one? Cc1cc(COc2ccc(C3=NCCN3)cc2)cc(COc2ccc(C3=NCCN3)cc2)c1 [MD-129, dihydrochloride] 25

So what's the measured CC50 at 24 h for this one? N=C(N)c1ccc(OCc2ccc(COc3ccc(C(=N)N)cc3)cc2)cc1 [MD-101, dihydrochloride] 50
